- Tested on: HS 578T breast
- method: NCI-60 one-dose screen, 48 h (100 = growth as untreated, 0 = no growth, -100 = all killed)
- assay-setup: 10 µM unless noted
The panel holds about 83,000 compounds, 20% with a hit somewhere; the sample as a whole holds those more often.
Recorded growth for the following molecules

molecule: CN(C)CCCC1(c2ccc(F)cc2)OCc2cc(-c3csc4ccccc34)ccc21 (stereo unspecified)
measured-target: HS 578T breast
growth [%]: 19.3

molecule: N#Cc1ccc(O)c(C2=NCC(c3ccc(-c4ccccc4)cc3)O2)c1 (stereo unspecified)
measured-target: HS 578T breast
growth [%]: 48.9

molecule: Cn1c(=O)[nH]c(=O)c2nc3c(nc21)-c1ccccc1C3=O
measured-target: HS 578T breast
growth [%]: 104

molecule: CCOC(=O)c1cnn(CC(C)O)c1NC(=O)NCc1cccc(F)c1 (stereo unspecified)
measured-target: HS 578T breast
growth [%]: 103

molecule: O=C(O)c1cn(C2CC2)c2cc(N3CCN(C(=O)N/N=C/c4cccc5ccccc45)CC3)c(F)cc2c1=O
measured-target: HS 578T breast
growth [%]: 96.2

molecule: Cn1c(=O)c2[nH]c(SC/C(=N/O)c3ccc(Br)cc3)nc2n(C)c1=O
measured-target: HS 578T breast
growth [%]: 31.8

* * *

- Test system: OVCAR-8 ovarian
- method: NCI-60 one-dose screen, 48 h (100 = growth as untreated, 0 = no growth, -100 = all killed)
- assay-setup: 10 µM unless noted
This is part of a sample that, as a whole, favours compounds with a hit. Of some 83,000 tested, about 20% had one in any assay.
Grouping rule (growth): bottom bin (below 30%), middle bin (30% to below 50%), top bin (50% or more)

compound: CC1(C)CC[C@]2(CO)CC[C@]3(C)[C@](O)([C@H](O)C[C@@H]4[C@@]5(C)CCCNC(C)(C)[C@@H]5CC[C@]43C)[C@@H]2C1
cat: top bin
--
compound: Cc1cccc(NC(=O)N/C(N)=N/c2nc3ccccc3s2)c1
cat: middle bin
--
compound: Oc1ccc(-c2nc3ccc4[nH]ncc4c3c3c2CCCC3)c(F)c1
cat: middle bin
--
compound: COc1cc(/C=C/c2cc(/C=C/c3ccc(O)c(OC)c3)n(C(=O)Nc3ccc(Cl)cc3)n2)ccc1O
cat: bottom bin
--
compound: CCn1cc(C(=O)N/N=C/c2ccccc2)c(=O)c2cc(F)c(N3CCNC(C)C3)c(F)c21 (stereo not drawn)
cat: bottom bin
--
compound: CCn1cc(C(=O)N/N=C/c2cccc(F)c2)c(=O)c2cc(F)c(N3CCNC(C)C3)c(F)c21 (stereo not drawn)
cat: bottom bin
--
compound: O=C1OCC2=C1C(c1ccccc1)c1cc3c(cc1N2CCO)OCCO3 (stereo not drawn)
cat: middle bin
--
compound: Cc1cccc(N=Nc2cccc(C)c2)c1
cat: top bin
--
compound: CCOC(=O)C(CCN(C)C)c1ccccc1 (stereo not drawn)
cat: top bin
--
compound: COc1ccc(/C=N/Nc2c3ccccc3nc3ccccc23)cc1
cat: top bin
--
compound: COC(=O)c1ccc2c(c1)c1c(C)c3cnccc3c(C)c1n2C
cat: bottom bin
--
compound: Cc1ccc(C2CC(c3cccc(Nc4ccncc4)c3)=Nc3c(N)nc(N)nc3N2)cc1 (stereo not drawn)
cat: middle bin

* * *

Reported growth is given for each of the following compounds.
- System: DU-145 prostate
- method: NCI-60 one-dose screen, 48 h (100 = growth as untreated, 0 = no growth, -100 = all killed)
- assay-setup: 10 µM unless noted
- Procedure: Cells are grown in 96 well plates and exposed to the test compound for 48 hours. Compounds are tested at a single concentration, which is 10^-5 M for most compounds. The reported endpoint is percent growth (GI% or GIPRCNT), where numbers from 0 - 100% represent growth inhibition, and numbers from -100% - 0 represent cell death. For example, a value of 40 represents 60% growth inhibition. A value of 0 means no net growth occurred over the course of the experiment. […]
The panel holds about 83,000 compounds, 20% with a hit somewhere; the sample as a whole holds those more often.

smiles-string: Cc1ccc(Cc2cnc(NC(=O)/C=C/c3ccc(C)o3)s2)cc1
measured-target: DU-145 prostate
growth, %: 33.9
//
smiles-string: O=S(=O)(Nc1cc(Sc2nc3ccccc3s2)c(O)c2ccccc12)c1ccc2ccccc2c1
measured-target: DU-145 prostate
growth, %: 101
//
smiles-string: N#Cc1c(-c2ccc(Br)cc2)nc2c(N=Nc3ccc(S(N)(=O)=O)cc3)c(N)nn2c1N
measured-target: DU-145 prostate
growth, %: 33.2

* * *

Reported growth values for the following compounds.
- Tested on: 786-0 renal
- method: NCI-60 one-dose screen, 48 h (100 = growth as untreated, 0 = no growth, -100 = all killed)
- assay-setup: 10 µM unless noted
- Protocol: Cells are grown in 96 well plates and exposed to the test compound for 48 hours. Compounds are tested at a single concentration, which is 10^-5 M for most compounds. The reported endpoint is percent growth (GI% or GIPRCNT), where numbers from 0 - 100% represent growth inhibition, and numbers from -100% - 0 represent cell death. For example, a value of 40 represents 60% growth inhibition. A value of 0 means no net growth occurred over the course of the experiment. […]
The panel holds about 83,000 compounds, 20% with a hit somewhere; the sample as a whole holds those more often. Activity calls are given as the source filed them. The calls were made as follows: active = growth percent below 10; inactive = the rest.

smiles-string: COc1cc(Cc2cc(-c3ccccc3)nn(Cc3ccccc3)c2=O)cc(OC)c1OC
growth: 49.9% (inactive)
--
smiles-string: COCCn1cc(-c2csc(-c3c[nH]c4ccccc34)n2)c2cccnc21
growth: 43.5% (inactive)
--
smiles-string: Cc1nc2ccccc2c(/C=C/c2ccc(F)cc2)c1C(=O)/C=C/c1ccccc1
growth: 24.1% (inactive)
--
smiles-string: Fc1cccc(-c2nc(-c3c[nH]c4ncccc34)cs2)c1
growth: 62.3% [100 µM] (inactive)

* * *

- Tested on: MOLT-4 leukemia
- method: NCI-60 one-dose screen, 48 h (100 = growth as untreated, 0 = no growth, -100 = all killed)
- assay-setup: 10 µM unless noted
This is part of a sample that, as a whole, favours compounds with a hit. Of some 83,000 tested, about 20% had one in any assay.
Reported values of growth for individual entries
measured-parameter: growth (%)

compound: COc1ccccc1S(=O)(=O)Nc1ccc2c3c(cc(CCC(=O)NCCCCNc4cccc5c4C(=O)N(C4CCC(=O)NC4=O)C5=O)cc13)C(=O)N2C (stereo not given)
numeric-result: 0.837

compound: CCCCCc1ccc(S(=O)(=O)Nc2cc(-c3csc(NC(C)=O)n3)ccc2N2CCN(C)CC2)cc1
numeric-result: 12.4

compound: N#Cc1ccc(/C=C/c2cn(-c3ccccc3)nc2-c2cccc([N+](=O)[O-])c2)cc1
numeric-result: 97.6

compound: CCN(CC)c1ccc(-c2cc(-c3cc(OC)c(OC)c(OC)c3)nc(N3CCC(O)CC3)c2C#N)cc1
numeric-result: 2.73

compound: O=C1NC(=O)C(c2coc3cc(Br)ccc23)=C1c1c[nH]c2ccccc12
numeric-result: 26

* * *

- System: NCI-H460 lung
- method: NCI-60 one-dose screen, 48 h (100 = growth as untreated, 0 = no growth, -100 = all killed)
- assay-setup: 10 µM unless noted
The panel holds about 83,000 compounds, 20% with a hit somewhere; the sample as a whole holds those more often. Active and inactive are the calls of the source. The calls were made as follows: active = growth percent below 10; inactive = the rest.
Below, each of the compounds is paired with its reported growth value.
measured-parameter: growth

compound: c1cc(OCCN2CCCCCC2)ccc1CNc1ccc2nc(CCC3CCCCC3)[nH]c2c1
result: 68.3% (inactive)
//
compound: Clc1ccc(-c2nc(C(Cl)Cl)nc3cc(-c4ccccc4)nn23)cc1
result: -54.6% (active)
//
compound: COc1ccc2c(c1)c(-c1nc(-c3ccc4ccccc4c3)cs1)cn2C
result: 98.4% (inactive)
//
compound: CCOC(=O)c1cnn(CC(C)O)c1NC(=O)NCc1cccc(F)c1 (stereo unspecified)
result: 105% (inactive)
//
compound: C=CCN=c1sc(-c2ccc3ccccc3c2)cn1NC(=O)c1cc2ccc1CCc1ccc(cc1)CC2
result: 52.3% (inactive)
//
compound: COc1ccc(C/C(C)=C(\c2ccc(Cl)cc2)c2ccc(OCCCN(C)C)cc2)cc1
result: 56.6% (inactive)

* * *

- Test system: MALME-3M melanoma
- method: NCI-60 one-dose screen, 48 h (100 = growth as untreated, 0 = no growth, -100 = all killed)
- assay-setup: 10 µM unless noted
About 83,000 compounds went through this panel and 20% of them were active in at least one assay; those are over-represented in the sample as a whole.
Classes (growth): class A: < 50%; class B: ≥ 50% and < 90%; class C: ≥ 90%

compound: NC(=O)c1ccccc1OCC(=O)Nc1ccc(Cl)c(Cl)c1
cat: class C

compound: CS(=O)(=O)Nc1cc(-c2ccc3ncnc(Nc4ccc5c(cnn5Cc5ccncc5)c4)c3c2)cnc1Cl
cat: class A

compound: COc1cc([C@@H](CCO)C[C@H](C)c2ccc3ccccc3c2)cc(OC)c1OC
cat: class A

compound: COC(=O)Cn1c2c(c3c(OC)cccc31)C(=O)c1ccccc1-2
cat: class C

compound: Cc1cc(O)cc(-c2nn(C)cc2-c2cc(N3CCOCC3)nc(-c3cccnc3)n2)c1
cat: class B

compound: COc1ccc(Cl)cc1Nc1nc(C(F)(F)F)ccc1C(=O)N/N=C/c1ccc([N+](=O)[O-])cc1
cat: class A

compound: Cc1sc2nc(NCCN)[nH]c(=O)c2c1C
cat: class B

compound: Clc1ccc(-c2nc(C(Cl)Cl)nc3cc(-c4ccccc4)nn23)cc1
cat: class A

compound: COc1ccc(C=Nc2c(C(=O)Nc3cccc(Cl)c3C)sc3nc(C)c(C(=O)/C=C/c4ccc(OC)cc4)cc23)cc1
cat: class A

compound: Cc1cc(C)c2c(c1)N(C)c1ncnc(-n3c(C)nc4cc(C)ccc43)c1CC2C (centres undefined)
cat: class A

compound: COc1ccc(CNc2ccc3nc(NC(=O)CN4CCCCCC4)sc3c2)cc1
cat: class C

compound: Nc1nc(N(Cc2ccccc2)c2ccccc2)c2cn[nH]c2n1
cat: class B
